B1: FBXO34 (parent)
chain: PRYREDPCKQCKKKYVKGDVSLCR

variants of: B1; assay: protein stability index of a GFP-peptide fusion (GPS, HEK-293T) (PSI 1-6); higher = more stable; conditions: c terminus: a fixed tail appended;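 also: lentivirally expressed fusions sorted by FACS into six bins by GFP to DsRed ratio, PSI derived from sequencing read proportions per bin multiplied by bin number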
protein stability index overview
API doc: respond with a numeric literal and nothing else, no unit.

Answered examples (3):
SEQUENCE_CONTENT: PRYREDPCKCCKKKYVKGDVSLCR
protein stability index: 2.13
--
SEQUENCE_CONTENT: PRYREDPCKQCKKHYVKGDVSLCR
protein stability index: 2.29
--
SEQUENCE_CONTENT: PRYREDPCKQCKKKYVKGDVILCR
protein stability index: 2.34

Entry under test: `PRYREDPCKQCKKEYVKGDVSLCR` . Its protein stability index was 2.69

Entry under test: `PHYREDPCKQCKKKYVKGDVSLCR` . Its protein stability index was 2.86

Entry under test: `PRYREDPCKQTKKKYVKGDVSLCR` . Its protein stability index was 3.57

Entry under test: `PRYREDQCKQCKKKYVKGDVSLCR` . Its protein stability index was 2.23

Entry under test: `PRVREDPCKQCKKKYVKGDVSLCR` . Its protein stability index was 2.28

Entry under test: `PRPREDPCKQCKKKYVKGDVSLCR` . Its protein stability index was 3.07

Entry under test: `PRYREDPCKQCKKKYVKGDFSLCR` . Its protein stability index was 1.93

Entry under test: `PRYREDECKQCKKKYVKGDVSLCR` . Its protein stability index was 2.76

Entry under test: `PRYREDPCKQCKKKYVKGDVFLCR` . Its protein stability index was 2.67

Entry under test: `PRYREDPCKQCKKTYVKGDVSLCR` . Its protein stability index was 2.92

The reported numbers originate from the supplement of paper PMC10567573.
